System: GH Release
Assay: in vivo growth hormone bioassay in pentobarbital-anesthetized male rats, s.c. injection, plasma GH by RIA
Design: species or system rat
Settings: Table C; relative potency, SS-14 = 100; based on 4-point assays
Non-standard residues stand in square brackets, D forms with d. Residues, ends and D or L forms follow the SMILES beside them.
quantity: INHIBITION POTENCY GH in vivo
Number only, no unit.

Ask: Given `CC(=O)N[C@@H](Cc1ccccc1)C(=O)N[C@H]1CSSC[C@@H](C(=O)N[C@H](C(N)=O)[C@@H](C)O)NC(=O)[C@H]([C@@H](C)O)NC(=O)[C@H](CCCCN)NC(=O)[C@@H](Cc2c[nH]c3ccccc23)NC(=O)[C@H](Cc2ccccc2)NC1=O` , respond with its INHIBITION POTENCY GH in vivo.
Reply: 13560

Ask: Given CC(=O)N[C@H](Cc1ccccc1)C(=O)N[C@@H](CS)C(=O)N[C@@H](Cc1ccccc1)C(=O)N[C@H](Cc1c[nH]c2ccccc12)C(=O)N[C@@H](CCCCN)C(=O)N[C@H](C(=O)N[C@@H](CS)C(=O)N1CCC[C@H]1C(N)=O)[C@@H](C)O [RC-76-2H, AcD-PheCysPheD-TrpLysThrCysProNH2] (Ac-[dF]CF[dW]KTCP-NH2) , respond with its INHIBITION POTENCY GH in vivo.
Reply: 1070

Ask: Given `CC(=O)N[C@H](Cc1ccccc1)C(=O)N[C@H]1CSSC[C@@H](C(=O)N[C@H](C(N)=O)[C@@H](C)O)NC(=O)[C@H](C(C)C)NC(=O)[C@H](CCCCN)NC(=O)[C@@H](Cc2c[nH]c3ccccc23)NC(=O)[C@H](Cc2ccc(O)cc2)NC1=O` , respond with its INHIBITION POTENCY GH in vivo.
Reply: 5520
